Biological target: FAAH (Mus musculus)
Sequence (O08914 whole entry): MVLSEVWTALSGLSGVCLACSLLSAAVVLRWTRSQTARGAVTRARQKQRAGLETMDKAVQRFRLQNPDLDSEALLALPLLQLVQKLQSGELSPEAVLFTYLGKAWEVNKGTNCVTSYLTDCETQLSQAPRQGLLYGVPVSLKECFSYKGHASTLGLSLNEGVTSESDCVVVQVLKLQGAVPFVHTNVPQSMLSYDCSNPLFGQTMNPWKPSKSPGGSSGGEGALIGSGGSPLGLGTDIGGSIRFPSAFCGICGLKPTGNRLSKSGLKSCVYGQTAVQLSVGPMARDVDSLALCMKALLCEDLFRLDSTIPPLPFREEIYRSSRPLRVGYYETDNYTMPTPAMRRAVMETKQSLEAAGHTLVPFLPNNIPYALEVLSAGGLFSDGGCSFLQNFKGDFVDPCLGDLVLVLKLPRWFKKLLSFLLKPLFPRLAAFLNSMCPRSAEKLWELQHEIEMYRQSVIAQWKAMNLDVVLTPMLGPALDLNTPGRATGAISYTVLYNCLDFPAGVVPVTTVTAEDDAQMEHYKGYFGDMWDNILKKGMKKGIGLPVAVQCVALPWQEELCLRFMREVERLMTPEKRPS
Assay: In vitro competitive activity-based protein profiling (Table 2, % inhibition at 1 μM)
Format: biochemical
Settings: read-out: % Inhibition at 1 μM FAAH
Protocol: After 30 min, FP—Rh (1.0 μL, 50 μM in DMSO) was added and the mixture was incubated for another 30 min at 37° C. Reactions were quenched with SDS loading buffer (50 μL-4×) and run on SDS-PAGE. Following gel imaging, serine hydrolase activity was determined by measuring fluorescent intensity of gel bands corresponding to MAGL, ABHD6 and FAAH using ImageJ 1.43 u software. […]
For each record, write down the corresponding inhibition at 1 µM.

Known inhibition at 1 µM results, listed for orientation:
# Compound, Assay Target, inhibition at 1 µM
records = [
    ("O=C(ON1C(=O)CCC1=O)N1CC2CN(Cc3ccc(N4CCOCC4)cc3OC(F)(F)F)CC2C1 (centres unmarked) [Example 86]", "FAAH (Mus musculus)", "25 to 75%"),
    ("O=C(OC(C(F)(F)F)C(F)(F)F)N1CC2CN(Cc3cc(CN4CCOCC4)cc(OC(F)(F)F)c3)CC2C1 (centres unmarked) [Example 183]", "FAAH (Mus musculus)", "< 25%"),
    ("Cn1cc(CN2CC3CN(C(=O)OC(C(F)(F)F)C(F)(F)F)CC3C2)c(-c2ccccc2)n1 (centres unmarked) [Example 50]", "FAAH (Mus musculus)", "< 25%"),
    ("CC1COCCN1c1ccc(CN2CC3CN(C(=O)ON4C(=O)CCC4=O)CC3C2)c(F)c1 (centres unmarked) [Example 100]", "FAAH (Mus musculus)", "< 25%"),
    ("O=C(OC(C(F)(F)F)C(F)(F)F)N1CC2CN(Cc3ccc(N4CCCC4)cc3C(F)F)CC2C1 (centres unmarked) [Example 202]", "FAAH (Mus musculus)", "25 to 75%"),
]

Quick batch: inhibition at 1 µM for everything below.
1. Cc1c(CN2CC3CN(C(=O)OC(C(F)(F)F)C(F)(F)F)CC3C2)cccc1N1C2CCC1COC2 (centres unmarked) [Example 127]
2. O=C(ON1C(=O)CCC1=O)N1CC2CN(Cc3ccc(C(=O)N4CCC4)cc3Cl)CC2C1 (centres unmarked) [Example 165]
3. CC1COCCN1c1cc(F)ccc1CN1CC2CN(C(=O)OC(C(F)(F)F)C(F)(F)F)CC2C1 (centres unmarked) [Example 16]

Key:
1. < 25%
2. < 25%
3. < 25%

###

Target: MAGL (Mus musculus)
Test: In vitro competitive activity-based protein profiling (Table 2, % inhibition at 1 μM)
Type: biochemical
Conditions: read-out: % Inhibition at 1 μM MAGL
For each record, write down the corresponding inhibition at 1 µM.

Known inhibition at 1 µM results, listed for orientation:
# Compound, inhibition at 1 µM
records = [
    ("O=C(OC(C(F)(F)F)C(F)(F)F)N1CC2CN(Cc3cc(CN4CCCCC4)cc(OC(F)(F)F)c3)CC2C1 (centres unmarked)", "> 75%"),
    ("Cc1cccc(-c2cc(CN3CC4CN(C(=O)OC(C(F)(F)F)C(F)(F)F)CC4C3)n(C)n2)c1 (centres unmarked)", "> 75%"),
    ("Cc1c(CN2CC3CN(C(=O)ON4C(=O)CCC4=O)CC3C2)cccc1N1CCN(S(C)(=O)=O)CC1 (centres unmarked)", "25 to 75%"),
    ("CC(C)(C)c1cc(CN2CC3CN(C(=O)OC(C(F)(F)F)C(F)(F)F)CC3C2)n(C2CCOCC2)n1 (centres unmarked)", "> 75%"),
]

Read the next record carefully.
Exercise: Which inhibition at 1 µM is reported for this compound? CC1COCCN1c1cc(Cl)ccc1CN1CC2CN(C(=O)OC(C(F)(F)F)C(F)(F)F)CC2C1 (centres unmarked)
Key: > 75%

###

Biological target: UniProt:Q8R2Y0
Assay: In vitro competitive activity-based protein profiling (Table 2, % inhibition at 1 μM)
Type: biochemical
Conditions: read-out: % Inhibition at 1 μM ABHD6
Measured Quantity: inhibition at 1 µM

# Molecule, Measured Quantity, Readout Value
records = [
    ("O=C(OC(C(F)(F)F)C(F)(F)F)N1CC2CN(Cc3cccc(N4CCC5(CCOC5)C4)c3Cl)CC2C1 (stereo not shown) [Example 48]", "inhibition at 1 µM", "< 25%"),
]

Quick batch: inhibition at 1 µM for everything below.
1. CC(C)c1ccc(CN2CC3CN(C(=O)ON4C(=O)CCC4=O)CC3C2)c(N2CCCC2)c1 (stereo not shown) [Example 98]
2. O=C(OC(C(F)(F)F)C(F)(F)F)N1CC2CN(Cc3cc(CN4CCOCC4)cc(OC(F)(F)F)c3)CC2C1 (stereo not shown) [Example 183]
3. Cc1c(CN2CC3CN(C(=O)ON4C(=O)CCC4=O)CC3C2)cccc1N1CCC(F)(F)CC1 (stereo not shown) [Example 144]

Key:
< 25%
< 25%
< 25%

Quick batch: inhibition at 1 µM for everything below.
1. Cc1ccc(CN2CC3CN(C(=O)OC(C(F)(F)F)C(F)(F)F)CC3C2)cc1-c1ccccc1 (stereo not shown) [Example 206]
2. CCn1cc(CN2CC3CN(C(=O)OC(C(F)(F)F)C(F)(F)F)CC3C2)c(-c2ccc(N3CCCCC3)cc2)n1 (stereo not shown) [Example 133]
3. O=C(OC(C(F)(F)F)C(F)(F)F)N1CC2CN(Cc3ccc(C(F)(F)F)cc3N3CC4COCC4C3)CC2C1 (stereo not shown) [Example 210]

Key:
1. 25 to 75%
2. < 25%
3. < 25%

###

Target: MAGL (Mus musculus, UniProt O35678)
Sequence (O35678 whole entry): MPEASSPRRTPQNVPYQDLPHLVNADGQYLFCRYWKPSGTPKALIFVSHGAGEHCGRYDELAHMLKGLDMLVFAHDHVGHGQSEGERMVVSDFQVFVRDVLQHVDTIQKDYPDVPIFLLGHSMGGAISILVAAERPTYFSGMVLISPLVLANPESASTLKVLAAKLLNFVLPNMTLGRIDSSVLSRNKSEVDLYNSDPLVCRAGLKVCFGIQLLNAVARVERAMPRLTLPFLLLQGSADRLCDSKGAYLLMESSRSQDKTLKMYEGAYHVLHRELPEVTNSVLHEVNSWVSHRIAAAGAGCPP
Experiment: biochemical
Measured Quantity: IC50

Exercise: Give the reported IC50 for O=C(ON1C(=O)CCC1=O)N1CC2CN(Cc3ccc(Cl)cc3N3CC4CCC(C3)O4)CC2C1 (stereo not shown) [Example 81] (system: MAGL (Mus musculus, UniProt O35678)).
Key: 100 to 1000 nM

###

Biological target: MAGL (Mus musculus, UniProt O35678)
Assay: In vitro competitive activity-based protein profiling (Table 2, % inhibition at 1 μM)
Format: biochemical
Settings: read-out: % Inhibition at 1 μM MAGL
For each record, write down the corresponding inhibition at 1 µM.

Known inhibition at 1 µM results, listed for orientation:
# Compound, Readout Value
data = [
    ("O=C(ON1C(=O)CCC1=O)N1CC2CN(Cc3ccc(Cl)cc3N3CCn4ncnc4C3)CC2C1 (stereo not drawn)", "< 25%"),
    ("O=C(OC(C(F)(F)F)C(F)(F)F)N1CC2CN(Cc3cccc(Cl)c3N3CC[C@H](CF)C3)CC2C1 (stereo partly drawn)", "> 75%"),
    ("Cc1cc(CN2CC3CN(C(=O)ON4C(=O)CCC4=O)CC3C2)n(C(C)C)n1 (stereo not drawn)", "< 25%"),
    ("O=C(ON1C(=O)CCC1=O)N1CC2CN(Cc3ccc(Cl)cc3N3Cc4cccnc4C3)CC2C1 (stereo not drawn)", "25 to 75%"),
]

Quick batch: inhibition at 1 µM for everything below.
1. CC(=O)N1CCN(c2cccc(CN3CC4CN(C(=O)OC(C(F)(F)F)C(F)(F)F)CC4C3)c2C)CC1 (stereo not drawn)
2. Cn1cc(CN2CC3CN(C(=O)ON4C(=O)CCC4=O)CC3C2)c(-c2ccccc2Cl)n1 (stereo not drawn)
3. O=C(OC(C(F)(F)F)C(F)(F)F)N1CC2CN(Cc3cccc(Cl)c3N3CCOCC3)CC2C1 (stereo not drawn)

Key:
1. > 75%
2. 25 to 75%
3. > 75%

###

For each record, write down the corresponding IC50.
Molecular target: UniProt:Q8R2Y0
Sequence (Q8R2Y0 1-336): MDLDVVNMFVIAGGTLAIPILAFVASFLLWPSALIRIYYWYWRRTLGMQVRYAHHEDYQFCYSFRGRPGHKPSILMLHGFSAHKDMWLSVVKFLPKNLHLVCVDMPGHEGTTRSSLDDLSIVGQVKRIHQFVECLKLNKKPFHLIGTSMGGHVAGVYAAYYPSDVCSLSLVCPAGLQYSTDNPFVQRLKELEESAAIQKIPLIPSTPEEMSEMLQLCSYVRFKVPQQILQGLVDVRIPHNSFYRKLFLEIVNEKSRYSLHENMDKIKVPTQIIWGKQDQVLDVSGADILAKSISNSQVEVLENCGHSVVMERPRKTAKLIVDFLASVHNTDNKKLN
Assay: biochemical
Details: in vitro competitive ABPP

Known IC50 results, listed for orientation:
# Molecule, Assay Target, Readout Value
measured = [
    ("O=C(OC(C(F)(F)F)C(F)(F)F)N1CC2CN(Cc3cccc(N4CCOCC4)c3C(F)(F)F)CC2C1 (stereo not shown)", "UniProt:Q8R2Y0", "1000 to 10000 nM"),
    ("O=C(ON1C(=O)CCC1=O)N1CC2CN(Cc3cccc(Cl)c3N3CCC(F)CC3)CC2C1 (stereo not shown)", "UniProt:Q8R2Y0", "1000 to 10000 nM"),
    ("O=C(OC(C(F)(F)F)C(F)(F)F)N1CC2CN(Cc3cccc(Cl)c3N3CC[C@H](CF)C3)CC2C1 (stereo partly shown)", "UniProt:Q8R2Y0", "> 10000 nM"),
]

Read the next record carefully.
Exercise: Which IC50 is reported for this molecule? CCn1ncc(CN2CC3CN(C(=O)OC(C(F)(F)F)C(F)(F)F)CC3C2)c1C(=O)N1CCOCC1 (stereo not shown)
Key: > 10000 nM
